meta.source: a melting point compilation (Tetko et al.; mined from patent text by program, amines drawn as free bases though some values may be those of a salt)

property_name: melting point

These solved cases illustrate the format of a correct answer.
mol_smiles | melting point
Nn1ncc2c1-c1cc3ccccc3nc1CC2 | 235 °C
CCOC(=O)c1c(CCN(CC)CC)nc2cc(OC)c(OC)cc2c1-c1ccc(OC)c(OC)c1 | 76 to 78 °C

Read the next record carefully.
Value lookup for melting point; key = `COC(=O)c1nc2cccc(C)c2c(O)c1C(=O)OC`
167 to 168 °C

###

property_name: melting point (°C)
# value in °C; strip the unit string

compound | observed_result
CCOC(=O)C1=C(C)NC(C)=C(C(=O)OC2CCCCC2)C1c1cccc([N+](=O)[O-])c1 (stereo not given) | 135

Read the next record carefully.
Value lookup for melting point; key = `NC(=O)c1c(OCc2c(F)cc(Br)cc2F)nsc1NC(=O)NCCCCN1CCCC1`
208
